- subject_of_test: Free fatty acid receptor 1 (Homo sapiens, UniProt O14842)
- Sequence (O14842 whole entry): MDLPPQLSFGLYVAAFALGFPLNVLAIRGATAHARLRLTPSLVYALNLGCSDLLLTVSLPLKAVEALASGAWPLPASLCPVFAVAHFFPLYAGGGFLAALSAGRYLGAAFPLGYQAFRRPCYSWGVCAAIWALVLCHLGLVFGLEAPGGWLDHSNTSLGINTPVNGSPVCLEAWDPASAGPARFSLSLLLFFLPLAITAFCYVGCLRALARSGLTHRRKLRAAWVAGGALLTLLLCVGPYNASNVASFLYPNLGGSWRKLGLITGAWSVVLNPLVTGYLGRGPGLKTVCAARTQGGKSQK
- assay_overview: Agonist activity at human FFA1 receptor expressed in CHO cells assessed as increase in intracellular calcium flux at 10 uM by Fluo 4AM dye-based FLIPR assay relative to TAK-875
- Format: functional, cell-based
value_type: Efficacy (%)

molecule | subject_of_test | endpoint_result
COc1cc(C)c(-c2cccc(COc3ccc4c(c3)C(=O)CC4CC(=O)O)c2)c(C)c1 (stereo not given) | Free fatty acid receptor 1 (Homo sapiens, UniProt O14842) | 87
Cc1nc(-c2ccccc2F)sc1COc1ccc(S(=O)(=O)CC(=O)O)cc1 | Free fatty acid receptor 1 (Homo sapiens, UniProt O14842) | 75
Cc1noc(C)c1-c1cc(COc2ccc(S(=O)(=O)CC(=O)O)cc2)ccc1Cl | Free fatty acid receptor 1 (Homo sapiens, UniProt O14842) | 81
Cc1nc(-c2ccccc2)sc1COc1ccc(S(=O)(=O)CC(=O)O)cc1 | Free fatty acid receptor 1 (Homo sapiens, UniProt O14842) | 91
CC(C)c1ccccc1-c1cccc(COc2ccc(S(=O)(=O)CC(=O)O)cc2)c1 | Free fatty acid receptor 1 (Homo sapiens, UniProt O14842) | 101
Cc1cc(OCCCS(C)(=O)=O)cc(C)c1-c1cccc(COc2ccc(S(=O)(=O)CC(=O)O)cc2)c1 | Free fatty acid receptor 1 (Homo sapiens, UniProt O14842) | 83
CCOc1ccc(-c2cccc(COc3ccc(S(=O)(=O)CC(=O)O)cc3)c2)c(Cl)c1 | Free fatty acid receptor 1 (Homo sapiens, UniProt O14842) | 105
Cc1nc(-c2cccc(F)c2)sc1COc1ccc(S(=O)(=O)CC(=O)O)cc1 | Free fatty acid receptor 1 (Homo sapiens, UniProt O14842) | 84
Cc1ccc(-c2cccc(COc3ccc(S(=O)(=O)CC(=O)O)cc3)c2)c(Cl)c1 | Free fatty acid receptor 1 (Homo sapiens, UniProt O14842) | 112
Cc1noc(C)c1-c1cccc(COc2ccc(S(=O)(=O)CC(=O)O)cc2)c1 | Free fatty acid receptor 1 (Homo sapiens, UniProt O14842) | 82
Cc1noc(C)c1-c1cccc(COc2ccc(S(=O)(=O)CC(=O)O)cc2)c1C | Free fatty acid receptor 1 (Homo sapiens, UniProt O14842) | 77
Cc1cccc(-c2nc(C)c(COc3ccc(S(=O)(=O)CC(=O)O)cc3)s2)c1 | Free fatty acid receptor 1 (Homo sapiens, UniProt O14842) | 82
O=C(O)CS(=O)(=O)c1ccc(OCc2cccc(-c3ccccc3F)c2)cc1 | Free fatty acid receptor 1 (Homo sapiens, UniProt O14842) | 97
Cc1cc(OCCCS(C)(=O)=O)cc(C)c1-c1cccc(COc2ccc(CCC(=O)O)cc2)c1 | Free fatty acid receptor 1 (Homo sapiens, UniProt O14842) | 116
Cc1cc(OCC2CC2)cc(C)c1-c1cccc(COc2ccc(S(=O)(=O)CC(=O)O)cc2)c1 | Free fatty acid receptor 1 (Homo sapiens, UniProt O14842) | 98
COc1cc(C)c(-c2cccc(COc3ccc4c(c3)C(O)CC4CC(=O)O)c2)c(C)c1 (stereo not given) | Free fatty acid receptor 1 (Homo sapiens, UniProt O14842) | 83
Cc1cccc(C)c1-c1cccc(COc2ccc(SCC(=O)O)cc2)c1 | Free fatty acid receptor 1 (Homo sapiens, UniProt O14842) | 95
CCCOc1cc(C)c(-c2cccc(COc3ccc(S(=O)(=O)CC(=O)O)cc3)c2)c(C)c1 | Free fatty acid receptor 1 (Homo sapiens, UniProt O14842) | 104
O=C(O)CS(=O)(=O)c1ccc(OCc2cccc(Oc3ccccc3)c2)cc1 | Free fatty acid receptor 1 (Homo sapiens, UniProt O14842) | 101
Cc1nc(-c2cccc(Cl)c2)sc1COc1ccc(S(=O)(=O)CC(=O)O)cc1 | Free fatty acid receptor 1 (Homo sapiens, UniProt O14842) | 85
